Biological target: UniProt Q5VWK5
Assay: Functional inhibition of IL-23 mediated STAT3 signalling (phospho-STAT3 MSD) in DB cells
Type: cell-based
Details: Table 3-2; DB cells, hIL-23 at EC80; read-out: hIL-23 (pSTAT3) antagonist IC50
*1 amine or outer side, *2 acyl side, *3 side chain or, on linkers, in order; H or OH if unused. Where a SMILES comes first, the peptide text is derived from it. Bridges are numbered along the chain shown (N, C = ends). [ ]: non-standard residue; d: D form. 2Nal = N[C@@H](Cc1ccc2ccccc2c1)C(=O)O; AEF = NCCOc1ccc(C[C@H](N)C(=O)O)cc1; X1 = O=C(Cc1ccc(CN[*:1])cc1)[*:2]; αMeL = CC(C)C[C@](C)(N)C(=O)O; CH2COCH2 = O=C(C[*:1])C[*:2]; 3Amb = NCc1cccc(C(=O)O)c1; Dab = NCC[C@H](N)C(=O)O
Measurement name: IC50 (nM)
Dear colleague, please return just the value in nM, with no unit written.

CC(C)C[C@]1(C)NC(=O)[C@H](Cc2ccc3ccccc3c2)NC(=O)[C@H](Cc2ccc(OCCN)cc2)NC(=O)[C@@H]2CSCC(=O)CSC[C@H](NC(=O)[C@H](CO)NC(=O)c3cccc(c3)CNC(=O)CC[C@@H](C(=O)N[C@H](CCCNC(=N)N)C(N)=O)NC1=O)C(=O)N[C@@H](Cc1c[nH]c3ccccc13)C(=O)N[C@@H](CCC(N)=O)C(=O)N2 [Ref 41, reference compound] ([3Amb]SCWQC[AEF][2Nal][αMeL]E[dR]-NH2; linker 3-6 via CH2COCH2; lactam N-10)	29
CC(C)C[C@@H]1NC(=O)[C@H](Cc2ccc3ccccc3c2)NC(=O)[C@H](Cc2c[nH]c3ccccc23)NC(=O)[C@@H]2CSCC(=O)CSC[C@H](NC(=O)[C@H](CO)NC(=O)c3cccc(c3)CNC(=O)CC[C@@H](C(=O)N[C@@H](CCCNC(=N)N)C(N)=O)NC1=O)C(=O)N[C@@H](Cc1c[nH]c3ccccc13)C(=O)N[C@@H](CCC(N)=O)C(=O)N2 [Ref 37, reference compound] ([3Amb]SCWQCW[2Nal]LER-NH2; linker 3-6 via CH2COCH2; lactam N-10)	45
CC(C)C[C@]1(C)NC(=O)[C@H](Cc2ccc3ccccc3c2)NC(=O)[C@H](Cc2ccc(OCCN)cc2)NC(=O)[C@@H]2CSCC(=O)CSC[C@H](NC(=O)[C@H](CO)NC(=O)Cc3ccc(cc3)CNC(=O)CC[C@@H](C(=O)N[C@H](CCCNC(=N)N)C(N)=O)NC1=O)C(=O)N[C@@H](Cc1c[nH]c3ccccc13)C(=O)N[C@@H](CCC(N)=O)C(=O)N2 [Ref 80, reference compound] ([X1]SCWQC[AEF][2Nal][αMeL]E[dR]-NH2; linker 3-6 via CH2COCH2; lactam N-10)	11
CC(C)C[C@]1(C)NC(=O)[C@H](Cc2ccc3ccccc3c2)NC(=O)[C@H](Cc2ccc(OCCN)cc2)NC(=O)[C@@H]2CCNC(=O)CC[C@H](NC(=O)[C@H](CO)NC(=O)Cc3ccc(cc3)CNC(=O)CC[C@@H](C(=O)N[C@@H](CCN)C(N)=O)NC1=O)C(=O)N[C@@H](Cc1c[nH]c3ccccc13)C(=O)N[C@@H](CCC(N)=O)C(=O)N2 [Ref 125, reference compound]	21

From here, focus on the item given below.
Respond only with IC50 recorded for CC(C)C[C@]1(C)NC(=O)[C@H](Cc2ccc3ccccc3c2)NC(=O)[C@H](Cc2ccc(OCCN)cc2)NC(=O)[C@@H]2CSCC(=O)CSC[C@H](NC(=O)[C@H](CO)NC(=O)Cc3ccc(cc3)CNC(=O)CC[C@@H](C(=O)N[C@@H](CCN)C(N)=O)NC1=O)C(=O)N[C@@H](Cc1c[nH]c3ccccc13)C(=O)N[C@@H](CCC(N)=O)C(=O)N2 [Ref 82, reference compound] ([X1]SCWQC[AEF][2Nal][αMeL]E[Dab]-NH2; linker 3-6 via CH2COCH2; lactam N-10)
11

* * *

Test: Peptide stability in simulated intestinal fluid (SIF)
Format: in vitro ADME
Conditions: pig, 37 °C, porcine pancreatin, pH 6.8, 1 h
remaining at 1 h, 10 µM values for the compounds below.
Please make sure the unit comes right after the number.

Use these answered entries as a reference point.
CC[C@H](C)[C@@H]1NC(=O)[C@@H]2CCCCNC(=O)CC[C@@H](C(=O)NC3(C(=O)N[C@@H](Cc4cccnc4)C(=O)NC)CCNCC3)NC(=O)[C@](C)(CC(C)C)NC(=O)[C@H](Cc3ccc4ccccc4c3)NC(=O)[C@H](Cc3ccc(OCCN)cc3)NC(=O)[C@H](CCC(=O)N2)NC(=O)[C@H](CCC(N)=O)NC(=O)[C@H](Cc2c[nH]c3ccccc23)NC(=O)[C@H](C(C)C)NC1=O	111%
CC[C@H](C)[C@@H]1NC(=O)[C@@H]2CCCCNC(=O)CC[C@@H](C(=O)N[C@@H](Cc3cn(C)cn3)C(=O)N[C@@H](Cc3cccnc3)C(=O)NC)NC(=O)[C@](C)(CC(C)C)NC(=O)[C@H](Cc3ccc4ccccc4c3)NC(=O)[C@H](Cc3ccc(OCCN)cc3)NC(=O)[C@H](CCC(=O)N2)NC(=O)[C@H](CCC(N)=O)NC(=O)[C@H](Cc2c[nH]c3ccccc23)NC(=O)[C@H](C(C)C)NC1=O	11%

From here, focus on the item given below.
Respond only with remaining at 1 h, 10 µM recorded for CC[C@H](C)[C@@H]1NC(=O)[C@@H]2CCCCNC(=O)CC[C@@H](C(=O)N[C@@H](CCN)C(=O)NCCc3cccnc3)NC(=O)[C@](C)(CC(C)C)NC(=O)[C@H](Cc3ccc4ccccc4c3)NC(=O)[C@H](Cc3ccc(OCCN)cc3)NC(=O)[C@H](CCC(=O)N2)NC(=O)[C@H](CCC(N)=O)NC(=O)[C@H](Cc2c[nH]c3ccccc23)NC(=O)[C@H](C(C)C)NC1=O
108%

* * *

Target: human IL-23R (Homo sapiens)
Sequence (Q5VWK5 22-629): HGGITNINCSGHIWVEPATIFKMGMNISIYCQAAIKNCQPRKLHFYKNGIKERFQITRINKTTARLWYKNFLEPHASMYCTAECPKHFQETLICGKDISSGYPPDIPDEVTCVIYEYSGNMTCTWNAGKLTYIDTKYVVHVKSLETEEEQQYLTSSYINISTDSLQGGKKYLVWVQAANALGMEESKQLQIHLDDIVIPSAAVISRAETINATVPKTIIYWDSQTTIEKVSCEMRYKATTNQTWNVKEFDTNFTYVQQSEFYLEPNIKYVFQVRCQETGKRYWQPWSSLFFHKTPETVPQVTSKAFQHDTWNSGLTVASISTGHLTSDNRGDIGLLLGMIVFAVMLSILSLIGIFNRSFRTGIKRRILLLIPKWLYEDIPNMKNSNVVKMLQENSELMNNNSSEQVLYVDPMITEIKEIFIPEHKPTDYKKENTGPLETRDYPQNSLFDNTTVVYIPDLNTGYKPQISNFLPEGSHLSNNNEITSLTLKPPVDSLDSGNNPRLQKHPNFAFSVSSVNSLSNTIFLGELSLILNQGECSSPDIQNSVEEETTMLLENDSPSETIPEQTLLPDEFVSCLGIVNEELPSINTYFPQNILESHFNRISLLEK
Assay: biochemical
*1 amine or outer side, *2 acyl side, *3 side chain or, on linkers, in order; H or OH if unused. Where a SMILES comes first, the peptide text is derived from it. Bridges are numbered along the chain shown (N, C = ends). [ ]: non-standard residue; d: D form. X17 = O=C(C[C@@H](CCCN[*:3])N[*:2])[*:1]; 2Nal = N[C@@H](Cc1ccc2ccccc2c1)C(=O)O; AEF = NCCOc1ccc(C[C@H](N)C(=O)O)cc1; 3Pal = N[C@@H](Cc1cccnc1)C(=O)O; αMeL = CC(C)C[C@](C)(N)C(=O)O; Dab = NCC[C@H](N)C(=O)O
% displacement (hIL-23R NIuc) values for the compounds below.
Dear colleague, please return just the value in %, with no unit written.

CC(=O)N[C@H]1CCSC[C@@H](C(=O)N[C@@H](Cc2ccc(OCCN)cc2)C(=O)N[C@@H](Cc2c[nH]c3ccccc23)C(=O)N[C@@](C)(CCCCN)C(=O)N[C@@H](CCC(=O)O)C(=O)N[C@@H](CC(N)=O)C(=O)NCC(N)=O)NC(=O)[C@H](CCC(N)=O)NC(=O)[C@H](Cc2c[nH]c3ccccc23)NC(=O)[C@H]([C@@H](C)O)NC(=O)[C@H](CCC(N)=O)NC1=O [Compound C, reference compound]	102
CC[C@H](C)[C@@H]1NC(=O)[C@@H]2CCCCNC(=O)CC[C@@H](C(=O)N[C@@H](Cc3cnc4ccccc4c3)C(=O)N[C@@H](Cc3cccnc3)C(=O)NC)NC(=O)[C@](C)(CC(C)C)NC(=O)[C@H](Cc3ccc4ccccc4c3)NC(=O)[C@H](Cc3ccc(OCCN)cc3)NC(=O)[C@H](CCC(=O)N2)NC(=O)[C@H](CCC(N)=O)NC(=O)[C@H](Cc2c[nH]c3ccccc23)NC(=O)[C@H](C(C)C)NC1=O	100

From here, focus on the item given below.
Respond only with % displacement (hIL-23R NIuc) recorded for CC(C)C[C@]1(C)NC(=O)[C@H](Cc2ccc3ccccc3c2)NC(=O)[C@H](Cc2ccc(OCCN)cc2)NC(=O)[C@@H]2CC(=O)N[C@H](CCCNC(=O)CC[C@@H](C(=O)N[C@@H](CCN)C(=O)N[C@@H](Cc3cccnc3)C(N)=O)NC1=O)CC(=O)N[C@@H]([C@@H](C)O)C(=O)N[C@@H](Cc1c[nH]c3ccccc13)C(=O)N[C@@H](CCC(N)=O)C(=O)N2 [Compound 13] (TWQD[AEF][2Nal][αMeL]E[Dab][3Pal]-NH2; linker N-4-8 via X17)
101

* * *

SIF (% remaining 4 h) values for the molecules below.
Test: Peptide stability in simulated intestinal fluid (SIF)
Assay type: in vitro ADME
Conditions: 10 µM, 37 °C, porcine pancreatin, pH 6.8, 4 h

Use these answered entries as a reference point.
CNC(=O)[C@H](Cc1cccnc1)NC(=O)[C@H](CCN)NC(=O)[C@@H]1CCC(=O)NCCCC[C@@H]2NC(=O)CC[C@H](NC(=O)[C@H](CCC(N)=O)NC(=O)[C@H](Cc3c[nH]c4ccccc34)NC(=O)CCNC2=O)C(=O)N[C@@H](Cc2ccc(OCCN)cc2)C(=O)N[C@@H](Cc2ccc3ccccc3c2)C(=O)N[C@@](C)(CC(C)C)C(=O)N1	87%
CC[C@H](C)[C@@H]1NC(=O)[C@@H]2CCCCNC(=O)CC[C@@H](C(=O)N[C@@H](Cc3cnc4ccccc4c3)C(=O)N[C@@H](Cc3cccnc3)C(=O)NC)NC(=O)[C@](C)(CC(C)C)NC(=O)[C@H](Cc3ccc4ccccc4c3)NC(=O)[C@H](Cc3ccc(OCCN)cc3)NC(=O)[C@H](CCC(=O)N2)NC(=O)[C@H](CCC(N)=O)NC(=O)[C@H](Cc2c[nH]c3ccccc23)NC(=O)[C@H](C(C)C)NC1=O	6%

From here, focus on the item given below.
Respond only with SIF (% remaining 4 h) recorded for CNC(=O)[C@H](Cc1cccnc1)NC(=O)[C@H](CCN)NC(=O)[C@@H]1CCC(=O)NCCCC[C@H]2CC(=O)NCC(=O)N[C@@H](Cc3c[nH]c4ccccc34)C(=O)N[C@@H](CCC(N)=O)C(=O)N[C@@H](CCC(=O)N2)C(=O)N[C@@H](Cc2ccc(OCCN)cc2)C(=O)N[C@@H](Cc2ccc3ccccc3c2)C(=O)N[C@@](C)(CC(C)C)C(=O)N1
42%
